Listed here: items and their measured EC50 (µM), activation of Tango CMKLR1-bla U2OS cells.
ASSAYED TARGET: T1, human Chemokine like receptor 1 (human, UniProt Q99788 1-373)
T1 sequence (looked up): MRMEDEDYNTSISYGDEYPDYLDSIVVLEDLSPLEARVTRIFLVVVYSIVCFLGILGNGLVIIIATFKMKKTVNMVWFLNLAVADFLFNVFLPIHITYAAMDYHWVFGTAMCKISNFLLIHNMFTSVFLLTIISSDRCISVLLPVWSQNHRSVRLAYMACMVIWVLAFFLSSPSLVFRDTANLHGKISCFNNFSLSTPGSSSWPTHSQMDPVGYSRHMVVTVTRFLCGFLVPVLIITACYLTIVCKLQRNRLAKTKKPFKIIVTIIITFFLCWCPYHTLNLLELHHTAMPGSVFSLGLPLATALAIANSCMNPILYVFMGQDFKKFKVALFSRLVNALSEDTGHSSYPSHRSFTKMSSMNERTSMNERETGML
ASSAY COMMENT: cell-based or functional assay
Square brackets hold non-standard residues; d marks the D form. Ends that are not written are not given here. * marks the point of attachment. Pro(trans-4-Ph) = O=C(O)[C@@H]1C[C@@H](c2ccccc2)CN1; PEG8 = NCCOCCOCCOCCOCCOCCOCCOCCOCCC(=O)O; 1Nal = N[C@@H](Cc1cccc2ccccc12)C(=O)O; 2Nal = N[C@@H](Cc1ccc2ccccc2c1)C(=O)O; dNMeY = CN[C@H](Cc1ccc(O)cc1)C(=O)O; Palmitoyl = CCCCCCCCCCCCCCCC(=O)*; NMeF = CN[C@@H](Cc1ccccc1)C(=O)O; Tic = O=C(O)[C@@H]1Cc2ccccc2CN1; NMeL = CN[C@@H](CC(C)C)C(=O)O; NMeS = CN[C@@H](CO)C(=O)O; Nle = CCCC[C@H](N)C(=O)O; βAla = NCCC(=O)O
RECORDED ENDPOINT: EC50 (µM), activation of Tango CMKLR1-bla U2OS cells

{"BINDER": "[dY]F[NEtL]P[dS]QF[dA][Tic]S [YW-183]", "RESULT": "0.0092 µM"}
{"BINDER": "{4‑biphenylacetyl}-[dY]FLP[dS]QF[dA][Tic]S-OH [YW-77]", "RESULT": "0.053 µM"}
{"BINDER": "{Palmitoyl-PEG8}-[βAla][βAla][dNMeY]F[NMeL]P[dS]Q[2Nal][dA][Tic][NMeS] [YW-179]", "RESULT": "0.0021 µM"}
{"BINDER": "[dNMeY]F[NMeL]P[dS]Q[1Nal][dA][Tic][NMeS]-OH (N-terminus assumed; SMILES CN[C@H](Cc1ccc(O)cc1)C(=O)N[C@@H](Cc1ccccc1)C(=O)N(C)[C@@H](CC(C)C)C(=O)N1CCC[C@H]1C(=O)N[C@H](CO)C(=O)N[C@@H](CCC(N)=O)C(=O)N[C@@H](Cc1cccc2ccccc12)C(=O)N[C@H](C)C(=O)N1Cc2ccccc2C[C@H]1C(=O)N(C)[C@@H](CO)C(=O)O) [YW-162]", "RESULT": "0.0026 µM"}
{"BINDER": "[dY]F[NMeF]P[dS]QF[dA][Tic]S-OH (N-terminus assumed; SMILES C[C@@H](NC(=O)[C@H](Cc1ccccc1)NC(=O)[C@H](CCC(N)=O)NC(=O)[C@@H](CO)NC(=O)[C@@H]1CCCN1C(=O)[C@H](Cc1ccccc1)N(C)C(=O)[C@H](Cc1ccccc1)NC(=O)[C@H](N)Cc1ccc(O)cc1)C(=O)N1Cc2ccccc2C[C@H]1C(=O)N[C@@H](CO)C(=O)O) [YW-100]", "RESULT": "0.042 µM"}
{"BINDER": "[dY]F[Nle]P[dS]QF[dA][Tic]S [YW-197]", "RESULT": "0.01 µM"}
{"BINDER": "phenethylcarbamoyl-[dY]FLP[dS]QF[dA][Tic]S-OH [YW-72]", "RESULT": "0.045 µM"}
{"BINDER": "[dY]F[NMeL]P[dS]Q[1Nal][dA][Tic]S-OH (N-terminus assumed; SMILES CC(C)C[C@@H](C(=O)N1CCC[C@H]1C(=O)N[C@H](CO)C(=O)N[C@@H](CCC(N)=O)C(=O)N[C@@H](Cc1cccc2ccccc12)C(=O)N[C@H](C)C(=O)N1Cc2ccccc2C[C@H]1C(=O)N[C@@H](CO)C(=O)O)N(C)C(=O)[C@H](Cc1ccccc1)NC(=O)[C@H](N)Cc1ccc(O)cc1) [YW-165]", "RESULT": "0.0015 µM"}
{"BINDER": "[dY]F[NMeL][Pro(trans-4-Ph)][dS]QF[dA][Tic]S [YW-215]", "RESULT": "0.0048 µM"}
